Recorded GI50 by entry
- System: SK-MEL-28
- Assay method text: NCI tumour cell line growth inhibition, 48 h
Calls of active or inactive are those of the source. Rule as the data show it: active = GI50 up to about 1.1 µM and inactive = higher.

Some compounds with known GI50 results, for comparison:
Compound	GI50
CC(=O)OC(C)(C)C1CCC(C)(C(O)COc2ccc(CCNC(=O)c3ccccc3)cc2)O1 (stereo not given)	79.8 µM (inactive)
CC1CC(NC2CCCCC2)=Nc2ccccc2N1Cc1ccccc1 (stereo not given)	4.38 µM (inactive)

Suppose we examine the compound CCOC(=O)c1c(Sc2ccc([N+](=O)[O-])cc2[N+](=O)[O-])nc2c3ccccc3ccn12 ; what GI50 value has been reported?
> 100 µM (inactive)

Suppose we examine the compound CC(N)C(C)Cc1ccccc1 (stereo not given) ; what GI50 value has been reported?
> 100 µM (inactive)

Suppose we examine the compound O=C(CCn1[nH]c(=O)c(Cl)c(Cl)c1=O)NNC(=O)C[n+]1ccccc1 ; what GI50 value has been reported?
> 100 µM (inactive)

====

- Test system: HOP-62
- Assay method text: NCI tumour cell line growth inhibition, 48 h
The source made the active and inactive calls. No stated cut-off is given here; in the data, active = GI50 up to about 1.1 µM and inactive = higher.
Return exactly one item of active, inactive

Call for entry CC1C2C=CC1C(c1c3ccc(=O)c(O)c-3oc3c(O)c(O)ccc13)C2C(=O)O (stereo not drawn) :
inactive

Call for entry BrCC(Br)(c1ccccc1)c1ccccc1-c1cc(-c2ccccc2)cc(-c2ccccc2)n1 (stereo not drawn) :
inactive

Call for entry N[C@@H](CCC(=O)NCP(=O)(O)O)C(=O)O :
inactive

Call for entry Cc1cc2nc3n(c2cc1C)C(c1c(F)cccc1F)SC3 (stereo not drawn) :
inactive

Call for entry COc1ccccc1C1C2=C(COC2=O)OC(C)(C)Oc2cc3c(cc21)OCO3 (stereo not drawn) :
inactive

Call for entry Cc1cn(C2OC(CO[Si](C)(C)C(C)(C)C)C(N(C)O[Si](C)(C)C(C)(C)C)C2[Se]c2ccccc2)c(=O)[nH]c1=O (stereo not drawn) :
inactive

Call for entry COc1cc2c(c(OC)c1OC)-c1ccc(SC)c(=O)cc1C(NC=O)CC2 (stereo not drawn) :
active

Call for entry CCOC(=O)c1c(C)nc2c(c1-c1cn(-c3ccccc3)nc1-c1ccccc1)C(=O)c1ccccc1-2 :
inactive

====

- System: KM12
- Assay method text: NCI tumour cell line growth inhibition, 48 h
Active and inactive are the calls of the source. Cut-off read from the data, not from the text of the source: active = GI50 up to about 1.1 µM and inactive = higher.
Return exactly one item of active, inactive

Call for entry CCOP(=O)(C=C=C1CCC2[C@@H]3CCc4cc(OC)ccc4C3CC[C@]12C)OCC (stereo not given in full) :
inactive

Call for entry COc1ccc2c(c1)OC1c3ccccc3OCC21 (stereo not given) :
inactive

Call for entry O=c1[nH]c(-c2ccccc2)nc2cc(Cl)ccc12 :
inactive

Call for entry CCCCc1ccc2[n+](c1)C(C(=O)OCC)=PC2 (stereo not given) :
inactive

Call for entry CCOC(=O)c1c(C)nc2c(c1-c1cn(-c3ccccc3)nc1-c1ccccc1)C(=O)c1ccccc1-2 :
active

Call for entry C=CCN1C(=O)/C(=C/c2ccc(OC)cc2)NC1=S :
inactive

Call for entry N#Cc1c(N)nc2c(c1-c1ccc(Br)cc1)CSc1ccccc1-2 :
inactive

Call for entry Cc1ccc(S(=O)(=O)N/N=C2/CCC(C(C)(C)C)CC2Br)cc1 (stereo not given) :
inactive

Call for entry C=CC1=C(C)/C(=C/C2=NC(=C\c3[nH]c(CC4NC(=O)C(C)/C4=C\C)c(C)c3CCC(=O)O)/C(CC(=O)O)=C2C)NC1=O (stereo not given) :
inactive

Call for entry CC(=O)O[C@H]1CCC2[C@@H]3CCC4NC(=O)C(C#N)C[C@]4(C)C3CC[C@@]21C (stereo not given in full) :
inactive

Data provenance: ChEMBL document CHEMBL1201862
